Target: murine langerin (Mus musculus)
Sequence (Q8VBX4 whole entry, the tested form may be a part): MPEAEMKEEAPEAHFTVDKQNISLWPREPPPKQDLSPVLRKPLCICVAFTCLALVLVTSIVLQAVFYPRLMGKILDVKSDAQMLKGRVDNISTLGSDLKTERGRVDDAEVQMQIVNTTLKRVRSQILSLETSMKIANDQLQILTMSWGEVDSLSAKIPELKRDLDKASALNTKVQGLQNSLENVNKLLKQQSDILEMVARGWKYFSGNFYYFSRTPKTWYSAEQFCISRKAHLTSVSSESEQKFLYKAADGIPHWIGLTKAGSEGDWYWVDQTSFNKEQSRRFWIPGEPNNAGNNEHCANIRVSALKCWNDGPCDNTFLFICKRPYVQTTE
Experiment: STD NMR measurements (fragment screening and epitope mapping), STD amplification factor
Type: binding
Details: Figure 1a fragment screening; [P] = 10 μM, [L] = 0.2 mM, tsat = 4 s
Classes by STD amplification factor: class 1 (below 10), class 2 (10 to below 20), class 3 (20 or more)

The examples below pair each entry with its known result.
Which class does "COc1cc(C(=O)O)c(Br)cc1C" fall in?
class 3

Band for the recorded STD amplification factor of CCC(C)(C(=O)O)c1cccs1 (stereo not shown) ?
class 2

Band for the recorded STD amplification factor of "COC(=O)c1cc2c(s1)CCC2" ?
class 3

Tag the class for "N#Cc1c(N)sc2c1CCCC2"
class 3

Record "COc1cc(C(C)=O)ccc1N" — which class?
class 1

# classify by STD amplification factor band: "CCNCc1cc(O)ccc1Br"
class 2

Which bin, given its STD amplification factor, does "Cc1cc(C)c(S(=O)(=O)C(C)C)c(Cl)n1" occupy?
class 1

Assign a bin to "CC(=O)Nc1ccc2nc(C)oc2c1"
class 1

New cases:
For "CC(=O)c1ccn(S(=O)(=O)c2ccccc2)c1" , which STD amplification factor bin applies?
class 3

Which of the defined bands does the recorded STD amplification factor of "O=C(Nc1ccccc1O)c1cccnc1Cl" sit within?
class 3

Consider "O=C1NC(=O)[C@@H]2CN(Cc3ccccc3)C[C@H]12" . To which STD amplification factor class does it belong?
class 1
